test: Clearance in Cynomolgus monkey at 10 mg/kg, po measured after 24 hrs by LC/MS/MS analysis; format: ADME, organism-based, Macaca fascicularis; details: in vivo

{"columns": ["smiles entry", "CL/F [mL/min/kg]"],
 "data": [
  ["Cn1c(=O)cc(N2CCC[C@@H](N)C2)n(Cc2ccccc2C#N)c1=O", 8.8]
]}
